system-under-test: UniProtKB Q9Y5N1
Sequence (Q9Y5N1 whole entry): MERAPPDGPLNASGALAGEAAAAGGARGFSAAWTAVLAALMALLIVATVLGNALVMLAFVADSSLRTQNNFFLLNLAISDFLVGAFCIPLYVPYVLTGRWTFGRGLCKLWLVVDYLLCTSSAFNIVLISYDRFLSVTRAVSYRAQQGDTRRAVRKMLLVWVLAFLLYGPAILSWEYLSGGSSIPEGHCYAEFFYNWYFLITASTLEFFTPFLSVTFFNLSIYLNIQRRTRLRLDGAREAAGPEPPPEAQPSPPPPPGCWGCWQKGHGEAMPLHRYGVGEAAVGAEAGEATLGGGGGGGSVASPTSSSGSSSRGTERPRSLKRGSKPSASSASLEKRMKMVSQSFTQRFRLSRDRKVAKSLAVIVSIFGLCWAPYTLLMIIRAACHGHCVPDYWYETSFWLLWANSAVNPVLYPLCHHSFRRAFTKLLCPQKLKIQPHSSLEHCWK
test: Displacement of [3H]alpha-methylhistamine from human histamine H3 receptor
observed-property: pKi
Conceptually, pKi converts a concentration in mol/L into minus its log10.

CNC(=O)C(CCN1CCC(O)(c2ccc(Cl)cc2)CC1)(c1ccccc1)c1ccccc1 yielded pKi of 8.03

---

test: Dissociation constant, pKa of the compound
Type: physicochemical
measurement-parameters: read-out: pKa
observed-property: pKa
Give the figure by itself; no unit, no explanation.

[11CH3]NC(=O)C(CCN1CCC(O)(c2ccc(Cl)cc2)CC1)(c1ccccc1)c1ccccc1 yielded pKa of 7.96

---

system-under-test: Alpha-2B adrenergic receptor (Homo sapiens, UniProt P18089)
Sequence (P18089 whole entry): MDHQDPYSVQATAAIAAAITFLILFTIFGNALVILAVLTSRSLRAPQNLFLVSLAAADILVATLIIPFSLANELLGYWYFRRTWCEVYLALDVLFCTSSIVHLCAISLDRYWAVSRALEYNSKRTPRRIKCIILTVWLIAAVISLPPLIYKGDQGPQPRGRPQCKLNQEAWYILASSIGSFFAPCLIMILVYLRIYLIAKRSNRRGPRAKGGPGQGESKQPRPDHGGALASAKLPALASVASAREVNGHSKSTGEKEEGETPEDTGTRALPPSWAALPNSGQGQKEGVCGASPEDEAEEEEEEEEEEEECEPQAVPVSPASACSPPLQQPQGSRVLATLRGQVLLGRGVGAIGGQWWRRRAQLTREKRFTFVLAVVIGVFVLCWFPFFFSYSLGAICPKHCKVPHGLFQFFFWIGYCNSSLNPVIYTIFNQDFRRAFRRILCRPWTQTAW
observed-property: pKi
Conceptually, pKi converts a concentration in mol/L into minus its log10.

Recorded pKi for CNC(=O)C(CCN1CCC(O)(c2ccc(Cl)cc2)CC1)(c1ccccc1)c1ccccc1 on Alpha-2B adrenergic receptor (Homo sapiens, UniProt P18089) was 8.15

---

system-under-test: Sigma non-opioid intracellular receptor 1 (Rattus norvegicus, UniProt Q9R0C9)
Sequence (Q9R0C9 whole entry): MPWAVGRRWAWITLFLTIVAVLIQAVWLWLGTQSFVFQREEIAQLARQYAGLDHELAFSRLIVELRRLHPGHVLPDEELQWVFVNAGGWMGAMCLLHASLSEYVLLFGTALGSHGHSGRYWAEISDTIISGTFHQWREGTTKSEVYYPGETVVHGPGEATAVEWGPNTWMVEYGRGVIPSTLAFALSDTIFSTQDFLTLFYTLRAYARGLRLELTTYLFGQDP
test: Displacement of [3H]Pentazocine from rat sigma 1 receptor in rat PC12 cells
observed-property: Ki
Remember to put the unit after the number in your answer.

CNC(=O)C(CCN1CCC(O)(c2ccc(Cl)cc2)CC1)(c1ccccc1)c1ccccc1 yielded Ki of 0.8 nM

---

system-under-test: UniProt:P08913
Sequence (P08913 whole entry): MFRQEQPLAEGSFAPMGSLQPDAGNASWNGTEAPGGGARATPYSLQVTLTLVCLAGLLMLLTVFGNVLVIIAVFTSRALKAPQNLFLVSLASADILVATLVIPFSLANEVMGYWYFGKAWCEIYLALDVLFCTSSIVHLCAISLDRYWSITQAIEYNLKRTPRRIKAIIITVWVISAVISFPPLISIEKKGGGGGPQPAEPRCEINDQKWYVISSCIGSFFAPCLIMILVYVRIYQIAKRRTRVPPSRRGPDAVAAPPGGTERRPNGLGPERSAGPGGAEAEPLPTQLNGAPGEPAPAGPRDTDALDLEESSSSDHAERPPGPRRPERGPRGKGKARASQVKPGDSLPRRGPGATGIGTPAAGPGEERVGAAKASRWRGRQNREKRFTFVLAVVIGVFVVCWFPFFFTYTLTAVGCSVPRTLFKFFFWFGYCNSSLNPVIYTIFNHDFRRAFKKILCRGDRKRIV
observed-property: Ki (nM)
Just the number please, in nM, no unit attached.

CNC(=O)C(CCN1CCC(O)(c2ccc(Cl)cc2)CC1)(c1ccccc1)c1ccccc1 yielded Ki of 1

---

observed-property: Ki (nM)
Just the number please, in nM, no unit attached.

Recorded Ki for CNC(=O)C(CCN1CCC(O)(c2ccc(Cl)cc2)CC1)(c1ccccc1)c1ccccc1 on Histamine H2 receptor (Homo sapiens, UniProt P25021) was 1.7

---

system-under-test: Mu-type opioid receptor (Homo sapiens)
Sequence (P35372 whole entry): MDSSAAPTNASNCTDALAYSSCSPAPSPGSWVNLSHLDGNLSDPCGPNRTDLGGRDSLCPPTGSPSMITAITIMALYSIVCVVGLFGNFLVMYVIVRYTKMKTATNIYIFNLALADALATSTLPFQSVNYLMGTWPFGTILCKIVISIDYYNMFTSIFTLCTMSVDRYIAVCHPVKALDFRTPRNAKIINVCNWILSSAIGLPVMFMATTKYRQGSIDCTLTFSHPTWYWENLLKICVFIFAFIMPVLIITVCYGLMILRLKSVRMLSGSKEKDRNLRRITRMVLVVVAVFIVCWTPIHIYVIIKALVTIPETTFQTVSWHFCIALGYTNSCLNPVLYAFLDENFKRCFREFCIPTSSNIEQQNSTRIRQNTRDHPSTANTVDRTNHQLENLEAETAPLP
test: Displacement of [3H]DAMGO from mu opioid receptor
observed-property: Ki (nM)
Just the number please, in nM, no unit attached.

CNC(=O)C(CCN1CCC(O)(c2ccc(Cl)cc2)CC1)(c1ccccc1)c1ccccc1 yielded Ki of 0.6

---

test: Displacement of [3H]DTG from rat sigma 2 receptor in rat PC12 cells
Assay type: cell-based
measurement-parameters: pc-12
observed-property: Ki (nM)
Just the number please, in nM, no unit attached.

CNC(=O)C(CCN1CCC(O)(c2ccc(Cl)cc2)CC1)(c1ccccc1)c1ccccc1 yielded Ki of 1.9
